Reference source for all entries: ChEMBL document CHEMBL3301361

# Assay text: in vitro
# Stated conditions: human, plasma, PPB
Readout label: fraction unbound at 5 h

{"columns": ["Compound", "Endpoint result"],
 "data": [
  ["COc1cc(O)c(C(CC(=O)N2CC(C)CC(C)C2)c2ccc3c(c2)OCO3)c(OC)c1 (centres undefined)", 0.0024],
  ["N#CCOc1ccccc1-c1ccc(-c2nc3ccncc3c(O)c2C#N)cc1", 0.0011],
  ["CC(=O)Nc1ccc2ccn(-c3cc(NCCN4CCCC4)n4ncc(C#N)c4n3)c2c1", 0.0556],
  ["CCOc1cc2ncc(C(N)=O)c(Nc3cccc(Cl)c3Cl)c2cc1N1CCN(CCO)CC1", 0.0477],
  ["CN[C@@H](C)C(=O)N[C@H](C(=O)N[C@H]1CCCN(CCc2ccccc2F)C1)C1CCCCC1", 0.262],
  ["O=C(CSc1nccn(-c2ccc(F)c(F)c2)c1=O)NC1CCCC1", 0.28],
  ["CN(CCCOCCOCCc1ccccc1)CCc1ccc(O)c2nc(O)sc12", 0.0988],
  ["CC(NC(=O)c1cc2ccccc2[nH]1)c1ccccc1 (centres undefined)", 0.0219],
  ["COc1cc(C(=O)OCCCCNC(=N)N)cc(OC)c1O [LEONURINE]", 0.619],
  ["O=C(NCc1ccc(F)c(OC(F)(F)F)c1)C1c2ccccc2C(=O)N1CCc1ncc(F)cn1 (centres undefined)", 0.0321],
  ["COc1ccc2c(c1)N(CCN1CCC(NCc3ccc4c(n3)NC(=O)CO4)CC1)C(=O)OC2", 0.258],
  ["COc1cc(OC)c(S(=O)(=O)NCc2ccccc2N2CCC(C(=O)O)CC2)cc1NC(=O)CCC(=O)O", 0.194],
  ["CC(C)Oc1cc(-n2cnc3ccc(N[C@@H](CO)c4ccc(F)cn4)nc32)n[nH]1", 0.0818],
  ["O[C@H](c1cc(C(F)(F)F)nc2c(C(F)(F)F)cccc12)[C@@H]1CCCCN1 [(R,S)-MEFLOQUINE]", 0.0214],
  ["CC(C)(C)NC(=O)c1ccc(Oc2cc(F)c(CC(=O)O)cc2Cl)c(NS(=O)(=O)c2ccc(C3CC3)cc2Cl)c1 [VIDUPIPRANT]", 0.0015],
  ["COc1ccc(NC(=O)CCc2c(C)nc3nc(C)nn3c2C)cc1", 0.176],
  ["Cc1nccn1-c1ccc(Sc2cccc(C3(C(N)=O)CCOCC3)c2)cc1", 0.069],
  ["Cc1ncc(NC(=O)c2cc(NC(=O)c3cccc(C(F)(F)F)c3)ccc2Cl)s1", 0.004],
  ["COCCOc1nc(N)c2[nH]c(=O)n(Cc3ccccc3)c2n1", 0.105],
  ["CCN1CCC[C@H]1CNC(=O)c1c(O)c(Cl)cc(Cl)c1OC [RACLOPRIDE]", 0.11],
  ["O=C(NC[C@@H](O)CN1CCC(Oc2ccc(Cl)c(Cl)c2)CC1)c1c[nH]c(=O)c2cc(F)ccc12", 0.0108],
  ["Cc1csc(N)c1C(N)=O", 0.324],
  ["Cc1ccc(S(=O)(=O)Nc2c(C(=O)N[C@@H](C)C(C)(C)C)c(C)nn2C2CCN(CC(F)(F)F)CC2)cc1", 0.117],
  ["COc1cc(OC)c(S(=O)(=O)N2c3ccccc3CC2C)cc1NC(C)=O (centres undefined)", 0.0437],
  ["COCCNc1nc(N)c2nc(O)n(Cc3ccccc3)c2n1", 0.208],
  ["C[C@H](CO)Nc1nc(SCc2cccc(F)c2F)nc2nc(N)sc12", 0.0196],
  ["O=C(O)c1cccnc1 [NIACIN]", 0.552],
  ["COc1ccc(Cl)cc1C1(F)C(=O)Nc2cc(C(F)(F)F)ccc21 (centres undefined)", 0.0017],
  ["NC(=O)c1cnc(N[C@H]2CCCNC2)c2cc(-c3ccc(Cl)cc3)sc12", 0.0081],
  ["CCN(CCO)C(=O)c1oc2cccnc2c1-c1cccc(C(F)(F)F)c1", 0.0872],
  ["Cc1c(C)c2c(c(C)c1O)CCC(C)(COc1ccc(CC3SC(=O)NC3=O)cc1)O2 (centres undefined) [TROGLITAZONE]", 0.0009],
  ["Cc1cccc(Nc2nc(NCc3ccco3)c3ccccc3n2)c1", 0.0007],
  ["CCCNC(=O)CSc1ccc(S(=O)(=O)N2CCCC2)cn1", 0.349],
  ["O=C(CC1CCN(Cc2ccn(-c3ccc(C(F)(F)F)cc3)c2)CC1)NC(c1ccncc1)c1ccc(Cl)cc1 (centres undefined)", 0.013],
  ["COc1ccc2ncc(=O)n(CCN3CC[C@@H](NCc4ccc5c(n4)NC(=O)CO5)[C@@H](OC)C3)c2c1", 0.28],
  ["C[C@H](NC(=O)Cc1cc(F)cc(F)c1)C(=O)NC1C(=O)N(C)c2ccccc2-c2ccccc21 (some centres undefined)", 0.0099],
  ["CCOc1cc2ncc(C(N)=O)c(Nc3cc(F)ccc3F)c2cc1N1CCN(C)CC1", 0.0736],
  ["CCOc1cc2ncc(C(N)=O)c(Nc3cccc(Cl)c3Cl)c2cc1N1CCN(CC)CC1", 0.0183],
  ["O=C(c1ccc(OCCN2CCCCC2)cc1)c1c(-c2ccc(O)cc2)sc2cc(O)ccc12 [RALOXIFENE]", 0.005]
]}

----------
# Assay text: in vitro
# Stated conditions: Dunkin Hartley, guinea pig, plasma
Reported fraction unbound at 5 h values follow for various compounds

{"columns": ["Compound", "fraction unbound at 5 h"],
 "data": [
  ["N#Cc1cc(F)c(Cl)cc1O[C@H](CCN)c1ccccc1", 0.101],
  ["COc1cccc2c1c(NS(=O)(=O)c1ccc(Cl)s1)nn2Cc1cccc(CNC(=O)C(C)(C)O)c1", 0.035],
  ["Cc1nccn1CC1CCc2c(c3ccccc3n2C)C1=O (centres undefined) [ONDANSETRON]", 0.635],
  ["Cc1nn(-c2ccccc2)c(N)c1-c1ccccc1", 0.0328],
  ["Cc1ccc(S(=O)(=O)Nc2c(C(=O)N[C@@H](C)C(C)(C)C)c(C)nn2-c2ccccc2)cc1", 0.0818],
  ["CC(C)(C)NCC(O)c1ccc(O)c(CO)c1 (centres undefined) [ALBUTEROL]", 0.855],
  ["Cc1ccc(S(=O)(=O)Nc2c(C(=O)N[C@@H](C)C(C)(C)C)c(C)nn2C(C)C)cc1", 0.271],
  ["c1ccc([C@@H]([C@H](c2ccccc2)N2CCCC2)N2CCCC2)cc1", 0.489],
  ["N#Cc1ccc2c(c1)N(CCN1CCC(NCc3ccc4c(n3)NC(=O)CO4)CC1)C(=O)CO2", 0.591],
  ["OCc1cc(C(O)CNCCCCCCOCCCCc2ccccc2)ccc1O (centres undefined) [SALMETEROL]", 0.0477],
  ["C[C@@](C(=O)O[C@H]1C[N+]2(CCc3ccccc3)CCC1CC2)(c1ccccc1)N1CCCCC1", 0.129],
  ["COc1ccc(CCO[C@@H]2CCCC[C@H]2N2CC[C@@H](O)C2)cc1OC [VERNAKALANT]", 0.309],
  ["C[C@@](C(=O)O[C@H]1C[N+]2(CCCc3ccc4ncsc4c3)CCC1CC2)(c1ccccc1)N1CCCCC1", 0.244],
  ["C[C@H](CN(C(=O)c1ccc(C#N)cc1)c1ccccn1)N1CCN(c2cccc3c2OCCO3)CC1 [LECOZOTAN]", 0.139],
  ["CCN(Cc1cc(C(F)(F)F)ccc1-c1cc(CC(=O)O)ccc1OC)C(=O)NCc1ccccc1 [AM-211]", 0.0256],
  ["O=C(O)[C@H](Cc1ccccc1)N1CCC(CN2CCC(Oc3ccc(Cl)c(Cl)c3)CC2)CC1", 0.58],
  ["COc1ccccc1CCNCc1cccc(CCNC[C@H](O)c2ccc(O)c3[nH]c(=O)sc23)c1", 0.276],
  ["c1ccc([C@H]([C@@H](c2ccccc2)N2CCCCC2)N2CCCCC2)cc1", 0.5],
  ["CC(=O)Nc1nc2c(Oc3cc(-c4ccc(C(F)(F)F)cc4)ncn3)cccc2s1 [AMG-517]", 0.0139],
  ["C[C@@](C(=O)O[C@H]1C[N+]2(CC(=O)Nc3ccccc3)CCC1CC2)(c1ccccc1)N1CCCCC1", 0.0499],
  ["COc1cccc(CNCc2cccc(CCNC[C@H](O)c3ccc(O)c4[nH]c(=O)sc34)c2)c1", 0.216],
  ["NC(=O)N1c2ccccc2C=Cc2ccccc21 [CARBAMAZEPINE]", 0.24],
  ["O=C(N[C@@H]1COc2cccc(-c3ccc(CO)nc3)c2C1)c1ccc(OCC(F)(F)F)nc1", 0.11],
  ["CN(CCNCCc1ccc(O)c2[nH]c(=O)sc12)C(=O)CCOCCc1ccccc1", 0.276]
]}

----------
# Assay text: physchem
# Stated conditions: octan-1-ol/water, pH 7.4, LogD7.4
Note that class boundaries on logD are bottom end = under 2, midrange = from 2 up to 3, top end = 3 and over

{"columns": ["Compound", "Assigned category"],
 "data": [
  ["COC1(c2cc(F)cc(OCc3ccc4c(ccc(=O)n4C)c3)c2)CCOCC1", "top end"],
  ["CNCCCC12CCC(c3ccccc31)c1ccccc12", "bottom end"],
  ["O=c1oc2ccccc2cc1-c1ccccc1", "top end"],
  ["Cc1ncc(-c2nc(Nc3ccc(C(=O)NC4CCN(C)CC4)cc3)ncc2F)n1C(C)C", "midrange"],
  ["OCC(CO)Nc1nc(SCc2cccc(F)c2F)nc2nc(NC3CC3)sc12", "top end"],
  ["COc1ccccc1C(C#N)NC(=O)[C@@H]1CCCC[C@H]1C(=O)N1CCN(Cc2ccc(F)cc2)CC1 (stereo partly specified)", "top end"],
  ["CCNc1nc(C#N)nc(Nc2ccccc2)n1", "top end"],
  ["Cc1nc(CS(=O)(=O)c2ccccc2)cc(N2CCOCC2)n1", "bottom end"],
  ["Cc1ccc(-c2ccc(N)nn2)cc1NC(=O)c1ccc(OCc2ccccn2)cc1", "midrange"],
  ["COc1cc2ncc(C(N)=O)c(Nc3ccccc3Cl)c2cc1OC", "midrange"]
]}
